# assay_system: VEGFR1 (Homo sapiens, UniProt P17948)
# Construct: GST-VEGFR1 (residues R781-I1338); GST (N); made in house; host or cells: Sf9 insect cells
# Sequence (P17948 781-1338): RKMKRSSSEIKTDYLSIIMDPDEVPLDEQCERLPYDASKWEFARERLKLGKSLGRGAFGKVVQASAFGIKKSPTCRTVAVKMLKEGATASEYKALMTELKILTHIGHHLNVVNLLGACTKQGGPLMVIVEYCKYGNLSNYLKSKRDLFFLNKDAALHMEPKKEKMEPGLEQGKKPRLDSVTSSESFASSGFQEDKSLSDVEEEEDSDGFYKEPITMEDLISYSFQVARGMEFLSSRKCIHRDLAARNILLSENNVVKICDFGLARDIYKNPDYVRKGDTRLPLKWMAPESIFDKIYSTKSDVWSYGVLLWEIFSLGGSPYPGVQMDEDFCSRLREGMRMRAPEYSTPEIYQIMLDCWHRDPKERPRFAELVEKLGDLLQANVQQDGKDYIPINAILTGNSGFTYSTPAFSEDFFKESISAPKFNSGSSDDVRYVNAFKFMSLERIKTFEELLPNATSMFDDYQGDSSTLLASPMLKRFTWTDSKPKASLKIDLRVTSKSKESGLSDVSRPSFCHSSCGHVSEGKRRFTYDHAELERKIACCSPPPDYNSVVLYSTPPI
# assay_details: VEGFR1 Kinase-Glo kinase assay
# Assay type: biochemical
# test_conditions: IC50, VEGFR1 assay, 1 μM ATP, bound in nM
experimental_endpoint: IC50

>>> measured_value("CN1CCN(c2ccc(C(=O)Nc3cc(-c4ccc(CNC(=O)Oc5ccccc5)cc4)n[nH]3)cc2)CC1")
"< 100 nM"
